# credit: paper PMC12357248

system: U251; experiment: MTS cell viability assay; type: cell-based; settings: Homo sapiens, U-251
Readout Kind: pIC50
Answers are plain numbers, as −log10 of the molar value.

Per the records, this molecule ( `O=C(O)CCN1C(=O)/C(=C2/C(=O)Nc3ccc(Cl)cc32)SC1=S` ) has pIC50 equal to 4.43

----------
system: U87-MG; assay: MTS cell viability assay; type: cell-based; conditions: Homo sapiens, U-87 MG
Readout Kind: IC50 (µM)
Answers are plain numbers, in µM.

Per the records, this compound ( O=C(O)CCN1C(=O)/C(=C2/C(=O)Nc3ccc(Cl)cc32)SC1=S [FX1] ) has IC50 equal to 32
